- SYSTEM: Amino acid transporter (Rattus norvegicus)
- Sequence (Q9Z1J7 whole entry): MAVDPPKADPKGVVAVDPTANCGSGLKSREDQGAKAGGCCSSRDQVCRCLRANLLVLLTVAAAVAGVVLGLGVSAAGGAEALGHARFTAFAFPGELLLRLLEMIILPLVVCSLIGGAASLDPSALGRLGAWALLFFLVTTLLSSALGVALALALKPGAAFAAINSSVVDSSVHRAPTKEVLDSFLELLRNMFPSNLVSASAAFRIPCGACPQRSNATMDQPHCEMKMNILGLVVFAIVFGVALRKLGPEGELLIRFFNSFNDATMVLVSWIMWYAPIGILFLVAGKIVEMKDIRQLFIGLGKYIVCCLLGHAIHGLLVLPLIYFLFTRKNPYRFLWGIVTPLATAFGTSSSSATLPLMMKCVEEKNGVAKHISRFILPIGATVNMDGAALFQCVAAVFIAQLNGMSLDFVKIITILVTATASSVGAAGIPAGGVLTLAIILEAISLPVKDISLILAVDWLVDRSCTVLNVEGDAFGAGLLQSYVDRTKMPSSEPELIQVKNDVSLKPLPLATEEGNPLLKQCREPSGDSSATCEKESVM
- METHOD DESCRIPTION: Inhibition of ASCT2-mediated glutamine transport in rat C6 cells using [3H]-glutamine after 15 mins by scintillation counting
IC50 strictly less than 70 µM = condition met. Otherwise condition not met.

SMI	CLASS
Cc1ccc(COc2ccccc2CN(CC[C@H](N)C(=O)O)Cc2ccccc2OCc2ccc(C)cc2)cc1	condition not met
N[C@@H](CCN(Cc1ccccc1OCc1ccccc1Cl)Cc1ccccc1OCc1ccccc1Cl)C(=O)O	condition met
N[C@@H](CCN(Cc1ccccc1OCc1cccnc1)Cc1ccccc1OCc1cccnc1)C(=O)O	condition met
N[C@@H](CCN(Cc1ccccc1OCc1cccc(Cl)c1)Cc1ccccc1OCc1cccc(Cl)c1)C(=O)O	condition met

Where do the numbers come from? From ChEMBL document CHEMBL3751750.
